assay: NCI Yeast Anticancer Drug Screen. Data for the sgs1 mgt1 strain (AID 161);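 also: 0% = growth of cultures given vehicle only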; conditions: S. cerevisiae sgs1 mgt1 strain, at 50.0 µM, active compounds read high
This is part of a sample that, as a whole, favours compounds with a hit. Of some 79,000 tested, about 15% had one in any assay.
quantity: growth inhibition (%)
The figure you give is taken to be in %; do not add the unit.

Consider the following illustrative entries.
{"compound": "CC(CO)(CO)[N+](=O)[O-]", "measurement-unit": "%", "growth inhibition": -5.85}
{"compound": "Cc1cc2c(=O)cc(-c3ccccc3Cl)oc2c(C(=O)O)c1C", "measurement-unit": "%", "growth inhibition": -4.45}
{"compound": "O=S1C2CCC(Br)C1CCC2Br (stereo not given)", "measurement-unit": "%", "growth inhibition": 23.1}
{"compound": "C=CCCCC1CCCNC1=O (stereo not given)", "measurement-unit": "%", "growth inhibition": -8.2}
{"compound": "CC(=O)c1ccc(N=NN(C)C)cc1", "measurement-unit": "%", "growth inhibition": -2.65}
{"compound": "Cc1cn(C2CCCCC2O)c(=O)[nH]c1=O (stereo not given)", "measurement-unit": "%", "growth inhibition": -2.85}
{"compound": "O=c1c2cccnc2[nH]c2ccc3[nH]ncc3c12", "measurement-unit": "%", "growth inhibition": -13.4}
{"compound": "CC(C(=O)C(=O)Nc1ccc(Cl)cc1)C(=O)c1ccc(Cl)cc1 (stereo not given)", "measurement-unit": "%", "growth inhibition": -2.85}

Now for the compound whose growth inhibition we want.
[Q] Which measured growth inhibition value corresponds to O=C(CC(c1ccccc1)C(Br)(c1ccccc1)[N+](=O)[O-])c1ccccc1 (stereo not given) ?
[A] -2.75
